Target: B1R receptor of the rat (bradykinin 1 receptor) (Rattus norvegicus)
Construct: host or cells: CHO K1 cells (rB1R cells)
Experiment: FLIPR Ca2+ assay (Fluo-4) on CHO K1 cells stably transfected with the B1R gene of the rat; % activation and % inhibition at 10 μM
Assay type: cell-based
Conditions: CHO-K1, test substance 10 μM; CHO K1 rB1R cells; Ca2+ inflow after 100 nM Des-Arg9-bradykinin; read-out: B1R antagonism, rat [10 μM] % inhibition
readout.type: inhibition at 10 µM (%)

(1) COc1ccc(S(=O)(=O)N2CCC(OCC(=O)N3CCC(O)(c4ccccn4)CC3)(c3ccccc3)CC2)cc1 [Example 74]
(2) O=C(CCC1CCCCN1S(=O)(=O)c1ccc2ccccc2c1)N1CCC(O)(c2cccnc2)CC1 (stereo not shown) [Example 117]
Quick one: lower inhibition at 10 µM, 1 or 2 ? // caller expects the label of the chosen entry
1
(1: -3.17%, 2: 24.2%)

(1) O=C(COCC1CCCN1S(=O)(=O)c1c(Cl)cc(Cl)cc1Cl)N1CCC(O)(c2cccnc2)CC1 (stereo not shown) [Example 204]
(2) COc1cc(C)c(S(=O)(=O)N2CCC(OCC(=O)N3CCC(O)(Cc4ccccc4)CC3)CC2)c(C)c1C [Example 8]
Given 1 and 2 , report the one with the higher recorded inhibition at 10 µM. I would appreciate it if you answered with the label of your choice.
1

* * *

Biological target: B1R receptor of the rat (bradykinin 1 receptor) (Rattus norvegicus, UniProt P97583)
Construct: host or cells: CHO K1 cells (rB1R cells)
Sequence (P97583 1-337): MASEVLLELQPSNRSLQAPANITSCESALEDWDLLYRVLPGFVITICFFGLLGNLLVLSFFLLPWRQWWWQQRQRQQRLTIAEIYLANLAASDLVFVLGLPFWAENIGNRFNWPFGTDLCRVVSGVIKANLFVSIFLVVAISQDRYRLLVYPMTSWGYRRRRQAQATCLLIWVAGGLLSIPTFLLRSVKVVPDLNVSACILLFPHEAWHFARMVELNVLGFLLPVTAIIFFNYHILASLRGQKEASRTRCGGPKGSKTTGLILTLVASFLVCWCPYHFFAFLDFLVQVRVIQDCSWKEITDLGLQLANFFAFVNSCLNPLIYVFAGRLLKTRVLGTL
Test: FLIPR Ca2+ assay (Fluo-4) on CHO K1 cells stably transfected with the B1R gene of the rat; % activation and % inhibition at 10 μM
Assay type: cell-based
Conditions: CHO-K1, test substance 10 μM; CHO K1 rB1R cells; Ca2+ inflow after 100 nM Des-Arg9-bradykinin; read-out: B1R antagonism, rat [10 μM] % inhibition
Text: The agonistic or antagonistic action of substances can be quantified on the bradykinin receptor 1 (B1R) of the species human and rat with ectopically expressing cell lines (CHO K1 cells) and with the aid of a Ca^2+-sensitive dye (Fluo-4) using a fluorescent imaging plate reader (FLIPR). […] The agonistic or antagonistic action of substances can be determined on the bradykinin 1 receptor (B1R) of the human and rat species with the following assay. […]
Counter-ions that a name gives are not always drawn.
readout.type: inhibition at 10 µM (%)

Consider the worked cases shown below.
INSERT INTO results (molecule, value) VALUES
  ('O=C(COCC1Cc2ccccc2CN1S(=O)(=O)c1ccc(Cl)cc1Cl)N1CCC(O)(c2ccc(Cl)cc2)CC1 (stereo not shown)', 70.7),
  ('O=C(COCC1Cc2ccccc2CN1S(=O)(=O)c1ccc(F)cc1)N1CCC(O)(Cc2ccccc2)CC1 (stereo not shown)', 19.2),
  ('Cc1cc(S(=O)(=O)N(C)CCOCC(=O)N2CCC(O)(c3ccc(Cl)cc3)CC2)c(C)s1', 90.7),
  ('O=C(COCC1CCCCN1S(=O)(=O)c1cc(Cl)sc1Cl)N1CCC(O)(c2ccc(Cl)c(C(F)(F)F)c2)CC1 (stereo not shown)', 99.2);

(a) O=C(COCC1Cc2ccccc2CN1S(=O)(=O)c1ccc(Cl)cc1Cl)N1CCC(O)(c2cccnc2)CC1 (stereo not shown) [Example 131, hydrochloride]
(b) Cc1cc(S(=O)(=O)N2CCCCC2CCC(=O)N2CCC(O)(c3ccccn3)CC2)c(C)cc1Cl (stereo not shown)
(c) O=C(COC1CCCN(S(=O)(=O)c2ccccc2)C1)N1CCC(O)(c2ccccn2)CC1 (stereo not shown)
Put the molecules in ascending order of inhibition at 10 µM. List each label, following the requested order.
c, b, a
(c: 10.8%, b: 22.4%, a: 100%)

* * *

Biological target: B1R receptor of the rat (bradykinin 1 receptor) (Rattus norvegicus)
Construct: host or cells: CHO K1 cells (rB1R cells)
Experiment: FLIPR Ca2+ assay (Fluo-4) on CHO K1 cells stably transfected with the B1R gene of the rat; % activation and % inhibition at 10 μM
Type: cell-based
Settings: CHO-K1, test substance 10 μM; CHO K1 rB1R cells; Ca2+ inflow after 100 nM Des-Arg9-bradykinin; read-out: B1R antagonism, rat [10 μM] % inhibition
readout.type: inhibition at 10 µM (%)

INSERT INTO measurements (compound, readout_type, value) VALUES
  ('O=C(COCC1Cc2ccccc2CN1S(=O)(=O)c1ccccc1)N1CCC(O)(c2cccnc2)CC1 (stereo not shown)', 'inhibition at 10 µM', 31.1);

(a) CN(c1ccccc1OCC(=O)N1CCC(O)(Cc2ccccc2)CC1)S(=O)(=O)c1ccc(Cl)c(Cl)c1
(b) O=C(COCC1CCCN1S(=O)(=O)c1cc(Cl)sc1Cl)N1CCC(O)(c2cccnc2)CC1 (stereo not shown)
(c) COc1cc(C)c(S(=O)(=O)N2CCC(OCC(=O)N3CCC(O)(Cc4ccccc4)CC3)C2)c(C)c1C (stereo not shown)
Hey, quick one: sort these by inhibition at 10 µM, largest value first please. Answer by writing out the labels in the requested order.
b, c, a

(I) COc1cc(C)c(S(=O)(=O)N(C)CCOCCC(=O)N2CCC(O)(c3ccc(Cl)c(C(F)(F)F)c3)CC2)c(C)c1
(II) O=C(COC1CCN(S(=O)(=O)c2c(Cl)cc(Cl)cc2Cl)C1)N1CCC(O)(c2ccccn2)CC1 (stereo not shown)
// compare measured inhibition at 10 µM, left I , right II , return larger Give the label under which the chosen entry appears.
I
(I: 99.9%, II: 31.9%)

* * *

Target: human B1R receptor (bradykinin 1 receptor) (Homo sapiens, UniProt P46663)
Construct: host or cells: CHO K1 cells (hB1R cells)
Sequence (P46663 whole entry): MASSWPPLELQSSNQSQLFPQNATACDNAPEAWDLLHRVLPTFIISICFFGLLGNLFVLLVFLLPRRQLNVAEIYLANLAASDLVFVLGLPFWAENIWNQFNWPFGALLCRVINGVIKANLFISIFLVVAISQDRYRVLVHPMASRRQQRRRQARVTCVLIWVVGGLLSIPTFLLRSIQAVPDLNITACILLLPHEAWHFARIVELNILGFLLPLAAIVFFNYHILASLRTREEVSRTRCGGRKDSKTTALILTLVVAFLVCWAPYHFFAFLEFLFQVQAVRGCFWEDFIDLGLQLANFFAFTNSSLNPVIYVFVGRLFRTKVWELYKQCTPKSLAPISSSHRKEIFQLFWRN
Experiment: FLIPR Ca2+ assay (Fluo-4) on CHO K1 cells stably transfected with the human B1R gene; % activation and % inhibition at 10 μM
Type: cell-based
Conditions: CHO-K1, test substance 10 μM; CHO K1 hB1R cells; Ca2+ inflow after 0.5 nM Lys-Des-Arg9-bradykinin; read-out: B1R antagonism, human [10 μM] % inhibition
Text: The agonistic or antagonistic action of substances can be quantified on the bradykinin receptor 1 (B1R) of the species human and rat with ectopically expressing cell lines (CHO K1 cells) and with the aid of a Ca^2+-sensitive dye (Fluo-4) using a fluorescent imaging plate reader (FLIPR). […] The agonistic or antagonistic action of substances can be determined on the bradykinin 1 receptor (B1R) of the human and rat species with the following assay. […]
readout.type: inhibition at 10 µM (%)

Study these solved cases before continuing.
INSERT INTO results (compound, units_text, value) VALUES
  ('O=C(COC1CCN(S(=O)(=O)c2ccc(Cl)cc2)C1)N1CCC(O)(Cc2ccccc2)CC1 (stereo not shown)', '%', 6.81),
  ('Cc1cc(C)c(S(=O)(=O)N2Cc3ccccc3CC2COCC(=O)N2CCC(O)(c3ccc(Cl)cc3)CC2)c(C)c1 (stereo not shown)', '%', 29.8),
  ('COc1cc(C)c(S(=O)(=O)N(CCOCC(=O)N2CCC(O)(c3cccnc3)CC2)CC2CC2)c(C)c1C', '%', 103);

(a) COc1cc(C)c(S(=O)(=O)N2CCCC(COCC(=O)N3CCC(O)(Cc4ccccc4)CC3)C2)c(C)c1 (stereo not shown)
(b) Cc1cc(S(=O)(=O)N(C)CCOCC(=O)N2CCC(O)(c3ccc(Br)cc3)CC2)c(C)s1
(c) COc1ccc(S(=O)(=O)N2CCCCC2COCC(=O)N2CCC(O)(Cc3ccccc3)CC2)cc1 (stereo not shown)
Would you mind ranking these compounds by ascending inhibition at 10 µM? Form field (ranking): labels in requested order.
c, a, b
(c: 5.08%, a: 32.7%, b: 49.4%)

* * *

Molecular target: human B1R receptor (bradykinin 1 receptor) (Homo sapiens)
Construct: host or cells: CHO K1 cells (hB1R cells)
Assay: FLIPR Ca2+ assay (Fluo-4) on CHO K1 cells stably transfected with the human B1R gene; % activation and % inhibition at 10 μM
Type: cell-based
Details: CHO-K1, test substance 10 μM; CHO K1 hB1R cells; Ca2+ inflow after 0.5 nM Lys-Des-Arg9-bradykinin; read-out: B1R antagonism, human [10 μM] % inhibition
readout.type: inhibition at 10 µM (%)

Example entries begin here.
INSERT INTO assay_data (molecule, study_target, value) VALUES
  ('COc1cc(C)c(S(=O)(=O)N2Cc3ccccc3C[C@H]2COCC(=O)N2CCC(O)(c3cccnc3)CC2)c(C)c1', 'human B1R receptor (bradykinin 1 receptor) (Homo sapiens)', 101),
  ('COc1cc(C)c(S(=O)(=O)N(C)CCCCC(=O)N2CCC(O)(c3cccnc3)CC2)c(C)c1', 'human B1R receptor (bradykinin 1 receptor) (Homo sapiens)', 100),
  ('CN(c1ccccc1CCC(=O)N1CCC(O)(c2cccnc2)CC1)S(=O)(=O)c1ccc(Cl)c(Cl)c1', 'human B1R receptor (bradykinin 1 receptor) (Homo sapiens)', 93.2),
  ('Cc1cc(C)c(S(=O)(=O)N2CCCCC2COCC(=O)N2CCC(O)(c3ccc(Cl)cc3)CC2)c(C)c1 (centres unmarked)', 'human B1R receptor (bradykinin 1 receptor) (Homo sapiens)', 84.5),
  ('O=C(COC1CCN(S(=O)(=O)c2c(Cl)cc(Cl)cc2Cl)C1)N1CCC(O)(c2ccccn2)CC1 (centres unmarked)', 'human B1R receptor (bradykinin 1 receptor) (Homo sapiens)', 29.1),
  ('O=C(COCC1CCCCN1S(=O)(=O)c1cccc2ccccc12)N1CCC(O)(c2ccc(Cl)cc2)CC1 (centres unmarked)', 'human B1R receptor (bradykinin 1 receptor) (Homo sapiens)', 84.8),
  ('Cc1cc(S(=O)(=O)N(C)CCOCC(=O)N2CCC(O)(c3ccc(Cl)c(C(F)(F)F)c3)CC2)c(C)s1', 'human B1R receptor (bradykinin 1 receptor) (Homo sapiens)', 94),
  ('O=C(COCC1CCCCN1S(=O)(=O)c1c(Cl)cccc1Cl)N1CCC(O)(c2ccc(Br)cc2)CC1 (centres unmarked)', 'human B1R receptor (bradykinin 1 receptor) (Homo sapiens)', 102),
  ('COc1ccc(S(=O)(=O)N2CCCC2COCC(=O)N2CCC(O)(c3ccncc3)CC2)cc1 (centres unmarked)', 'human B1R receptor (bradykinin 1 receptor) (Homo sapiens)', 9.64),
  ('O=C(COCC1CCCN1S(=O)(=O)c1c(Cl)cccc1Cl)N1CCC(O)(c2ccccc2)CC1 (centres unmarked)', 'human B1R receptor (bradykinin 1 receptor) (Homo sapiens)', 99);

(a) COc1cc(C)c(S(=O)(=O)N2CCCCC2COCC(=O)N2CCC(O)(c3ccc(Cl)cc3)CC2)c(C)c1 (centres unmarked)
(b) COc1ccc(S(=O)(=O)N2CCCCC2CCOCC(=O)N2CCC(O)(c3ccccn3)CC2)cc1 (centres unmarked)
(c) CN(c1ccccc1CCC(=O)N1CCC(O)(c2ccc(Cl)c(C(F)(F)F)c2)CC1)S(=O)(=O)c1ccc(Cl)c(Cl)c1
(d) CN(c1ccccc1OCC(=O)N1CCC(O)(Cc2ccccc2)CC1)S(=O)(=O)c1ccc(Cl)c(Cl)c1
(e) O=C(COCC1CCCN1S(=O)(=O)c1ccc(Cl)c(Cl)c1)N1CCC(O)(c2ccccn2)CC1 (centres unmarked)
Order the items by recorded inhibition at 10 µM; the first position goes to the largest value. As an answer, provide the labels arranged in the order called for.
a, c, d, e, b

(1) COc1cc(C)c(S(=O)(=O)N(C)CCOCCC(=O)N2CCC(O)(c3ccc(Cl)cc3)CC2)c(C)c1
(2) COc1cc(C)c(S(=O)(=O)N2Cc3ccccc3CC2COCC(=O)N2CCC(O)(c3cccc(C(F)(F)F)c3)CC2)c(C)c1C (centres unmarked)
(3) COc1cc(C)c(S(=O)(=O)N2CCC(CCOCC(=O)N3CCC(O)(c4ccccn4)CC3)CC2)c(C)c1C
Order the items by recorded inhibition at 10 µM; the first position goes to the largest value. Answer format: list of labels, ordered as asked.
1, 2, 3
(1: 100%, 2: 38.9%, 3: -2.48%)

(P) Cc1ccc(S(=O)(=O)N2CCCCC2COCC(=O)N2CCC(O)(c3cccnc3)CC2)cc1Cl (centres unmarked)
(Q) COc1cc(C)c(S(=O)(=O)N2Cc3ccccc3CC2COCC(=O)N2CCC(O)(Cc3ccccc3)CC2)c(C)c1C (centres unmarked)
Which entry shows the lesser value of inhibition at 10 µM here, P or Q ? Use the label to indicate which entry you chose.
Q
(Q: 54.5%, P: 78.5%)
